For each of the compounds below, state its viability, T/C.
# Tested on: MPNST multicellular tumor spheroids, viability % test/control
# protocol: Anticancer human tumor MPNST cell line growth inhibition;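 note: luminescence signal used as surrogate for viable cell amount; spheroids exposed to agents for seven days after three days of growth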
# test.settings: second compound 0.03 µM; first compound 0.0949 µM; stronger effect = lower value
Number only, in %; omit the unit.

stdin: Checklist item: viability, T/C tested on MPNST multicellular tumor spheroids, viability % test/control, entry CNCc1ccc(-c2cc(-c3nc(-c4ccc(S(=O)(=O)C(C)C)cc4)cnc3N)on2)cc1 + CC[C@@]1(O)C(=O)OCc2c1cc1n(c2=O)Cc2cc3c(CN(C)C)c(O)ccc3nc2-1 , value?
stdout: 53.8

stdin: Checklist item: viability, T/C tested on MPNST multicellular tumor spheroids, viability % test/control, entry O=C(c1cc(Cc2n[nH]c(=O)c3ccccc23)ccc1F)N1CCN(C(=O)C2CC2)CC1 + CC[C@@]1(O)C(=O)OCc2c1cc1n(c2=O)Cc2cc3c(CN(C)C)c(O)ccc3nc2-1 , value?
stdout: 53.5

stdin: Checklist item: viability, T/C tested on MPNST multicellular tumor spheroids, viability % test/control, entry Cn1ncnc1[C@H]1c2n[nH]c(=O)c3cc(F)cc(c23)N[C@@H]1c1ccc(F)cc1 + CC[C@@]1(O)C(=O)OCc2c1cc1n(c2=O)Cc2cc3c(CN(C)C)c(O)ccc3nc2-1 , value?
stdout: 61.1

stdin: Checklist item: viability, T/C tested on MPNST multicellular tumor spheroids, viability % test/control, entry Cc1sc2c(c1C)C(c1ccc(Cl)cc1)=NC(CC(=O)Nc1ccc(O)cc1)c1nnc(C)n1-2 (centres undefined) + CC[C@@]1(O)C(=O)OCc2c1cc1n(c2=O)Cc2cc3c(CN(C)C)c(O)ccc3nc2-1 , value?
stdout: 62

Hello, the source for this data is PubChem BioAssay AID1845205, in case you need it.
